# key: entry, value: IC50
Tested on: HeLa
Experiment: Cytostatic activity against human HeLa cells after 72 hrs by MTT assay
Assay type: functional, cell-based

[
  {
    "COMPOUND": "COC(=O)[C@H](C)NP(=O)(OCCCNC(=O)C(C)c1ccc(CC(C)C)cc1)Oc1ccc(Cl)cc1 (stereo not given in full)",
    "EXPERIMENTAL_SYSTEM": "HeLa",
    "DISPLAY_UNIT": "µM",
    "VALUE_RELATION_SIGN": "=",
    "IC50": 15
  },
  {
    "COMPOUND": "CC(C(=O)NCCCO)c1cccc(C(=O)c2ccccc2)c1 (stereo not given)",
    "EXPERIMENTAL_SYSTEM": "HeLa",
    "DISPLAY_UNIT": "µM",
    "VALUE_RELATION_SIGN": ">",
    "IC50": 100
  },
  {
    "COMPOUND": "COC(=O)[C@H](C)NP(=O)(OCCCNC(=O)Cc1ccccc1Nc1c(Cl)cccc1Cl)Oc1ccc(Cl)cc1 (stereo not given in full)",
    "EXPERIMENTAL_SYSTEM": "HeLa",
    "DISPLAY_UNIT": "µM",
    "VALUE_RELATION_SIGN": "=",
    "IC50": 16
  },
  {
    "COMPOUND": "CC(C(=O)NCCCO)c1cccc(Oc2ccccc2)c1 (stereo not given)",
    "EXPERIMENTAL_SYSTEM": "HeLa",
    "DISPLAY_UNIT": "µM",
    "VALUE_RELATION_SIGN": ">",
    "IC50": 100
  },
  {
    "COMPOUND": "O=C(Cc1ccccc1Nc1c(Cl)cccc1Cl)NCCCO",
    "EXPERIMENTAL_SYSTEM": "HeLa",
    "DISPLAY_UNIT": "µM",
    "VALUE_RELATION_SIGN": "=",
    "IC50": 46
  },
  {
    "COMPOUND": "COC(=O)[C@H](C)NP(=O)(OCCCNC(=O)C(C)c1cccc(Oc2ccccc2)c1)Oc1ccc(Cl)cc1 (stereo not given in full)",
    "EXPERIMENTAL_SYSTEM": "HeLa",
    "DISPLAY_UNIT": "µM",
    "VALUE_RELATION_SIGN": "=",
    "IC50": 6
  },
  {
    "COMPOUND": "COc1ccc2c(c1)c(CC(=O)NCCCO)c(C)n2C(=O)c1ccc(Cl)cc1",
    "EXPERIMENTAL_SYSTEM": "HeLa",
    "DISPLAY_UNIT": "µM",
    "VALUE_RELATION_SIGN": "=",
    "IC50": 26
  },
  {
    "COMPOUND": "COC(=O)[C@H](C)NP(=O)(OCCCNC(=O)Cc1c(C)n(C(=O)c2ccc(Cl)cc2)c2ccc(OC)cc12)Oc1ccc(Cl)cc1 (stereo not given in full)",
    "EXPERIMENTAL_SYSTEM": "HeLa",
    "DISPLAY_UNIT": "µM",
    "VALUE_RELATION_SIGN": "=",
    "IC50": 17
  },
  {
    "COMPOUND": "COC(=O)[C@H](C)NP(=O)(OCCCNC(=O)C(C)c1cccc(C(=O)c2ccccc2)c1)Oc1ccc(Cl)cc1 (stereo not given in full)",
    "EXPERIMENTAL_SYSTEM": "HeLa",
    "DISPLAY_UNIT": "µM",
    "VALUE_RELATION_SIGN": "=",
    "IC50": 19
  },
  {
    "COMPOUND": "CC(C)Cc1ccc(C(C)C(=O)NCCCO)cc1 (stereo not given)",
    "EXPERIMENTAL_SYSTEM": "HeLa",
    "DISPLAY_UNIT": "µM",
    "VALUE_RELATION_SIGN": ">",
    "IC50": 100
  }
]
